This section presents molecules with their documented pIC50 values.
Molecular target: HLA-DR DRB1*1501 (DR15) (Homo sapiens, UniProt P01903+P01911)
Experiment: biochemical
Format: binding
Conditions: DRBI *1501
pIC50: −log10 of the molar value.
REPORTED ENDPOINT: pIC50

CHEMICAL STRUCTURE	NUMBER
CC[C@H](C)[C@H](NC(=O)[C@@H]1CCCN1C(=O)[C@H](CC(N)=O)NC(=O)[C@@H](N)Cc1c[nH]c2ccccc12)C(=O)N[C@@H](CC(C)C)C(=O)N[C@@H](CC(C)C)C(=O)N[C@@H](Cc1c[nH]c2ccccc12)C(=O)N[C@@H](CCC(N)=O)C(=O)N1CCC[C@H]1C(=O)N[C@H](C(=O)N1CCC[C@H]1C(=O)N[C@H](C(=O)N[C@@H](Cc1c[nH]cn1)C(=O)N[C@H](C(=O)N[C@H](C(=O)O)C(C)C)[C@@H](C)O)C(C)C)[C@@H](C)CC	7.85
CC[C@H](C)[C@H](NC(=O)[C@H](CCC(=O)O)NC(=O)[C@H](CC(C)C)NC(=O)[C@H](C)NC(=O)[C@H](CO)NC(=O)[C@H](CO)NC(=O)[C@H](CC(C)C)NC(=O)[C@H](CCC(=O)O)NC(=O)[C@H](Cc1c[nH]cn1)NC(=O)[C@H](CC(C)C)NC(=O)[C@H](CCCCN)NC(=O)[C@H](CCCNC(=N)N)NC(=O)[C@@H]1CCCN1)C(=O)N1CCC[C@H]1C(=O)N[C@@H](Cc1ccc(O)cc1)C(=O)O	5.95
CC(C)C[C@H](NC(=O)CNC(=O)[C@H](CC(N)=O)NC(=O)[C@H](Cc1ccc(O)cc1)NC(=O)[C@@H](NC(=O)[C@H](CC(=O)O)NC(=O)[C@H](CC(C)C)NC(=O)[C@H](C)N)C(C)C)C(=O)N[C@@H](CC(C)C)C(=O)N1CCC[C@H]1C(=O)N1CCC[C@H]1C(=O)N[C@@H](Cc1ccc(O)cc1)C(=O)N[C@@H](C)C(=O)N[C@@H](CO)C(=O)N[C@@H](CS)C(=O)O	5.96
CC[C@H](C)[C@H](NC(=O)[C@H](CO)NC(=O)[C@H](CC(=O)O)NC(=O)[C@H](CCCNC(=N)N)NC(=O)[C@H](Cc1ccc(O)cc1)NC(=O)[C@@H](NC(=O)[C@@H](NC(=O)[C@H](Cc1ccccc1)NC(=O)[C@@H](N)CC(C)C)C(C)C)C(C)C)C(=O)N1CCC[C@H]1C(=O)N[C@@H](Cc1c[nH]cn1)C(=O)N[C@@H](C)C(=O)N[C@@H](C)C(=O)N[C@@H](CS)C(=O)N[C@@H](Cc1c[nH]cn1)C(=O)O	6.36
CC[C@H](C)[C@H](NC(=O)CNC(=O)[C@H](Cc1ccc(O)cc1)NC(=O)[C@H](CC(C)C)NC(=O)[C@H](CO)NC(=O)[C@H](CC(C)C)NC(=O)[C@H](CC(C)C)NC(=O)[C@H](CO)NC(=O)[C@H](CC(C)C)NC(=O)[C@H](CCC(=O)O)NC(=O)[C@H](CO)NC(=O)[C@H](CC(C)C)NC(=O)[C@H](CCC(=O)O)NC(=O)[C@H](CCCNC(=N)N)NC(=O)[C@@H](N)CC(C)C)C(=O)O	6.63
